- ASSAY TARGET: ERG_Y373A (Homo sapiens, UniProt P11308, Y373A)
- Sequence (P11308 whole entry Y373A): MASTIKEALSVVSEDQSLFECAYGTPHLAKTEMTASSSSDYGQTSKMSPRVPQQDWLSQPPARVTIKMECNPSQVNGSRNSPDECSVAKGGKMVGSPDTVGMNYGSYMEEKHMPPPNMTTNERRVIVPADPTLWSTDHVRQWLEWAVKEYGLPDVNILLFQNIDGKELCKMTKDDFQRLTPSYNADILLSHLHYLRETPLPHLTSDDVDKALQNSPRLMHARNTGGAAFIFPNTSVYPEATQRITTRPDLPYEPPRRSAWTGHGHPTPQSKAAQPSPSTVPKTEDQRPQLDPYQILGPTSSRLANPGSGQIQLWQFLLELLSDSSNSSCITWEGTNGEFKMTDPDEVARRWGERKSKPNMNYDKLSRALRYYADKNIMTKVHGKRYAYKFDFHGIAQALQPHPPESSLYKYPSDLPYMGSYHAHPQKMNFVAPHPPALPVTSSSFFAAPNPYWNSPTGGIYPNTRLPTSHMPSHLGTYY
- ASSAY REMARKS: biochemical
- Format: binding
Where no end group is shown, it is not given here.
MEASURED ATTRIBUTE: Kd

input: Give a short answer stating reported Kd for LPPYLFT [EIP1, LPPYLFT] .
output: > 100 µM

* * *

Kd overview
- ASSAY TARGET: ERG (Homo sapiens, UniProt P11308)
- Sequence (P11308 whole entry): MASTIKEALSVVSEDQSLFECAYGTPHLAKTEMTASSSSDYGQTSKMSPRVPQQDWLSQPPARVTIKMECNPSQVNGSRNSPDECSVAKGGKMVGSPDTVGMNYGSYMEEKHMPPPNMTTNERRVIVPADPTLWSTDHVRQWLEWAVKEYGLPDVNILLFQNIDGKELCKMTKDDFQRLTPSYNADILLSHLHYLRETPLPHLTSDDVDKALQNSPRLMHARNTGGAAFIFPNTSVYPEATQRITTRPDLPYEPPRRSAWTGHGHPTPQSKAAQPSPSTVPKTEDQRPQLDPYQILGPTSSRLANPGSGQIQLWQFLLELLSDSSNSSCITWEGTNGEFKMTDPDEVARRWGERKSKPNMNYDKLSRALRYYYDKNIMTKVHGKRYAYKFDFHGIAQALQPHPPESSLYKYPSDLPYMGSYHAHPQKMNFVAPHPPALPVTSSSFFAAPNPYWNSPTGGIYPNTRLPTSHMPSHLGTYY
- ASSAY REMARKS: ERG:peptide binding by biolayer interferometry (OctetRED)
Where no end group is shown, it is not given here.
Write it as a number; the unit µM goes unstated.

In [3]: df
Out[3]:
           substance  measured_attribute  readout_units  readout_number
0  FTFGSLP [FTFGSLP]                  Kd             µM             3.9

// switching to the query substance
input: Tell me its Kd on ERG (Homo sapiens, UniProt P11308): LRFGTLP [LRFGTLP]
output: 7.9
